settings: in methanol, 283.15 K
PARAMETER: solubility (mole fraction)
// print number alone

Data request: # lookup: solubility (mole fraction) of CC(C)OC(=O)[C@H](C)N[P@](=O)(Oc1ccccc1)Oc1c(F)c(F)c(F)c(F)c1F
Data returned: 0.0028

* * *

conditions: in isopropanol, 278.15 K
PARAMETER: solubility (mole fraction)
Keep the answer to the number alone.

Data request: Which solubility (mole fraction) is reported for this molecule? CC(C)OC(=O)[C@H](C)N[P@](=O)(Oc1ccccc1)Oc1c(F)c(F)c(F)c(F)c1F
Data returned: 0.00118

* * *

conditions: in ethanol, 313.15 K
PARAMETER: solubility (mole fraction)
Form rule: numeric answer, no unit written next to it.

Data request: Would you kindly share the measured solubility (mole fraction) for CC(C)OC(=O)[C@H](C)N[P@](=O)(Oc1ccccc1)Oc1c(F)c(F)c(F)c(F)c1F ?
Data returned: 0.00836

The measured values listed here are drawn from BigSolDB 2.1.
